Target: plasma protein
Test: plasma ultrafiltration (Centrifree), LC-MS/MS; peptide 0.1 uM
Starred links: 1 amine or outer side, 2 acyl side, 3 side chain; linkers in the order of their positions; H or OH if unused. Positions of bridges follow the written chain, without caps; N, C: chain ends. Non-standard residues stand in square brackets, D forms with d. dTyr(O-Me) = O-methyl-D-tyrosine, COc1ccc(C[C@@H](N[*:1])C(=O)[*:2])cc1; dPhe(4-Br) = N[C@H](Cc1ccc(Br)cc1)C(=O)O; Nle = CCCC[C@H](N)C(=O)O; Aib = CC(C)(N)C(=O)O
List of Protein Binding (%) values.
Supply the numeric figure in %, leaving out any unit text.

Example binders with recorded Protein Binding (%):
binder	measurementUnits	recordedNumber
Ac-RC[dA]R[dF]RWC-NH2 (disulfide 2-8; SMILES CC(=O)N[C@@H](CCCNC(=N)N)C(=O)N[C@H]1CSSC[C@@H](C(N)=O)NC(=O)[C@H](Cc2c[nH]c3ccccc23)NC(=O)[C@H](CCCNC(=N)N)NC(=O)[C@@H](Cc2ccccc2)NC(=O)[C@H](CCCNC(=N)N)NC(=O)[C@@H](C)NC1=O) [CTX-1211]	%	51
Ac-RC[dA]R[dTyr(O-Me)]R[dW]C-NH2 (disulfide 2-8; SMILES COc1ccc(C[C@H]2NC(=O)[C@H](CCCNC(=N)N)NC(=O)[C@@H](C)NC(=O)[C@@H](NC(=O)[C@H](CCCNC(=N)N)NC(C)=O)CSSC[C@@H](C(N)=O)NC(=O)[C@@H](Cc3c[nH]c4ccccc34)NC(=O)[C@H](CCCNC(=N)N)NC2=O)cc1) [CTX-1238]	%	53

Q: Suppose we examine the binder Ac-R[Nle]CR[dF]RWC-NH2 (disulfide 3-8; SMILES CCCC[C@H](NC(=O)[C@H](CCCNC(=N)N)NC(C)=O)C(=O)N[C@H]1CSSC[C@@H](C(N)=O)NC(=O)[C@H](Cc2c[nH]c3ccccc23)NC(=O)[C@H](CCCNC(=N)N)NC(=O)[C@@H](Cc2ccccc2)NC(=O)[C@H](CCCNC(=N)N)NC1=O) [CTX-1228] ; what Protein Binding (%) value has been reported?
A: 37

Q: For Ac-RC[Aib]R[dPhe(4-Br)]R[dW]C-NH2 (disulfide 2-8; SMILES CC(=O)N[C@@H](CCCNC(=N)N)C(=O)N[C@H]1CSSC[C@@H](C(N)=O)NC(=O)[C@@H](Cc2c[nH]c3ccccc23)NC(=O)[C@H](CCCNC(=N)N)NC(=O)[C@@H](Cc2ccc(Br)cc2)NC(=O)[C@H](CCCNC(=N)N)NC(=O)C(C)(C)NC1=O) [CTX-1246] then?
A: 73
